// provenance: paper PMC4336329

system: human ether-à-go-go-related gene (hERG) potassium channel (human)
experiment notes: primary screen, population patch clamp on CHO cells stably expressing hERG; higher = less effect of the substance
About 14,000 (4.5%) of roughly 310,000 compounds showed an effect of 50% or more. Effects have a minus sign here. What follows is part of a selection rich in strong results, with near analogues and random picks from the rest.
test readout: hERG current change (%, negative = inhibition) at 10uM (%)
Write it as a number; the unit % goes unstated.

Here are 2 compounds together with their reported answers.
- compound structure: "Cc1cccn2c(=O)c3cc(C(=O)NCCc4ccccc4)sc3nc12"
  system: "human ether-à-go-go-related gene (hERG) potassium channel (human)"
  unit of measure: "%"
  recorded result: -6.84
- compound structure: "C=CCn1c(O)c(N=O)c2cc(C)ccc21"
  system: "human ether-à-go-go-related gene (hERG) potassium channel (human)"
  unit of measure: "%"
  recorded result: -8.69

Ask: Sample COc1ccccc1CCNC(=O)CN1C(=O)NC2(CCCC2)C1=O — what was its hERG current change (%, negative = inhibition) at 10uM?
Result: -9.26

---

hERG current change (%, negative = inhibition) at 10uM values, listed per item
system: human ether-à-go-go-related gene (hERG) potassium channel (human)
experiment notes: primary screen, population patch clamp on CHO cells stably expressing hERG; higher = less effect of the substance
Among all 310,000 compounds or so, about 14,000 (4.5%) showed an effect of 50% or more. The effect is printed as a negative number. The entries come from a sample that favours strong results as a whole.
Returns: string containing the number followed by the unit.

Field: example entries. Status: answers known.
- compound: "O=C1N[C@@H](Cc2cn(S(=O)(=O)c3ccccc3)c3ccccc23)C(=O)N[C@H]1Cc1ccccc1"
  recorded result: "14.9%"
- compound: "CC(C)(C)OC(=O)CNC(=O)c1[nH]cnc1C(=O)NC1CCN(C(=O)OC(C)(C)C)CC1"
  recorded result: "-2.67%"
- compound: "CC(=O)N1Cc2ccccc2CC1C(=O)O (stereo not drawn)"
  recorded result: "-7.43%"
- compound: "Clc1ccc(COc2ccccn2)cc1Cl"
  recorded result: "-6.01%"
- compound: "CCn1c(=O)n(CCc2ccccc2)c(=O)c2c3c(sc21)CCCC3"
  recorded result: "1.05%"

Ask: Item under review: CCN1CCN(c2nc(-c3ccccc3)c3ccccc3n2)CC1 . Reported hERG current change (%, negative = inhibition) at 10uM?
Result: -71.2%

Ask: What value of hERG current change (%, negative = inhibition) at 10uM has been reported for the following compound? CCOC(=O)c1sc2c(c1C)c(=O)n(CCO)c(=O)n2Cc1ccccc1
Result: 4.88%

Ask: Fill in the blank: the reported hERG current change (%, negative = inhibition) at 10uM of CN(C)CCCn1c(=O)n(Cc2ccccc2)c(=O)c2c3c(sc21)CCCCC3 is ____.
Result: -58.9%

Ask: Look at this compound and give its reported hERG current change (%, negative = inhibition) at 10uM. CCCCCc1c(O)c2ccccc2[nH]c1=O
Result: 7.97%

---

system: human ether-à-go-go-related gene (hERG) potassium channel (human, UniProt Q12809)
Sequence (Q12809 whole entry, looked up): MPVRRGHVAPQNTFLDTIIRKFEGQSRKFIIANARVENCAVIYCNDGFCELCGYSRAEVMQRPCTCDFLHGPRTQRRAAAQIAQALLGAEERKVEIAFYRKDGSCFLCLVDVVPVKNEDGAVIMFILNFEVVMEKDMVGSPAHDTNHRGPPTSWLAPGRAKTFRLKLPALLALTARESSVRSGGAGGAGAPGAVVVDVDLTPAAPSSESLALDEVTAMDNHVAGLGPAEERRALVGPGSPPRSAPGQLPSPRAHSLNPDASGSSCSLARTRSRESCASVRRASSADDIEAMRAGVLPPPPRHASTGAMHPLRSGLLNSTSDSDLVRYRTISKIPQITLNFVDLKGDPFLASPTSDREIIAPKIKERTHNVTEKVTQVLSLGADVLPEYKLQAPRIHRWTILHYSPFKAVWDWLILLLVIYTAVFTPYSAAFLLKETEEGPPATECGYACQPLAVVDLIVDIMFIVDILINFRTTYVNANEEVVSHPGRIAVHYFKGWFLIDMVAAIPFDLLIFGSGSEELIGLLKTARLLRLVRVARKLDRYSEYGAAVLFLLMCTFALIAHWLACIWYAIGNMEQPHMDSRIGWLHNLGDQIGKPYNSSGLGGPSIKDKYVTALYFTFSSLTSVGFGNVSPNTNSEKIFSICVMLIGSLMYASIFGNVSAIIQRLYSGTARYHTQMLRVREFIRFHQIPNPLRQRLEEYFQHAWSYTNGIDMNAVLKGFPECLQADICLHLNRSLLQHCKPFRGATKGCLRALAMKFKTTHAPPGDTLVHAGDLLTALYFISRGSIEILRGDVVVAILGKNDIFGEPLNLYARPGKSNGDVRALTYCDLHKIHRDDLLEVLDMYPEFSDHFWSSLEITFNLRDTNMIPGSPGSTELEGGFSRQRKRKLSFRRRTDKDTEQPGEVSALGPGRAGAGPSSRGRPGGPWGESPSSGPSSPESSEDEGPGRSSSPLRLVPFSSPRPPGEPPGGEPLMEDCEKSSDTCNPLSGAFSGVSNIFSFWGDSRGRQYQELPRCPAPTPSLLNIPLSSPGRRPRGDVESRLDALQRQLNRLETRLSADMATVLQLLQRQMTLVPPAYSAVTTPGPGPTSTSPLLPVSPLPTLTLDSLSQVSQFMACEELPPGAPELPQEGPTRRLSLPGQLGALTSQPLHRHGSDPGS
experiment notes: primary screen, population patch clamp on CHO cells stably expressing hERG; higher = less effect of the substance
The whole screen tested about 310,000 compounds, of which about 14,000 (4.5%) showed an effect of 50% or more. Effects have a minus sign here. Only a selection was taken, and strong results are over-represented in it overall.
test readout: hERG current change (%, negative = inhibition) at 10uM (%)
Numbers only; they are read as %.

Ask: Bench note: what hERG current change (%, negative = inhibition) at 10uM did CCOC(=O)Nc1ccc2c(c1)ncn2C1CCCCC1 show?
Result: -8.98

Ask: Consider the compound shown here: O=C(O)COc1ccccc1/C=N/NC(=O)c1ccc2c(c1)OCCO2 What is its recorded hERG current change (%, negative = inhibition) at 10uM?
Result: -2.93

Ask: # lookup: hERG current change (%, negative = inhibition) at 10uM of O=C(NNC(=O)c1ccccc1-n1cccc1)c1ccccc1
Result: -18.3

---

system: human ether-à-go-go-related gene (hERG) potassium channel (human)
experiment notes: primary screen, population patch clamp on CHO cells stably expressing hERG; higher = less effect of the substance
Among all 310,000 compounds or so, about 14,000 (4.5%) showed an effect of 50% or more. The effect is printed as a negative number. The sample as a whole holds a higher share of strong results than the screen did.
# key: entry, value: hERG current change (%, negative = inhibition) at 10uM
Number only, in %; omit the unit.

Previously resolved entries follow.
- compound: "Cc1ccc(NC(=O)CN2CCC(C(=O)c3ccc4c(c3)OCCO4)CC2)cc1"
  recorded result: -44.7
- compound: "Cc1nc(N=C(N)N)nc2ccccc12"
  recorded result: 23.6
- compound: "Cc1cc(C)c(NC2=NS(=O)(=O)c3ccccc32)c(C)c1"
  recorded result: -10.9
- compound: "Cc1ccc(-c2nn(-c3ccccc3Cl)cc2C(=O)NCC2CCCO2)cc1 (stereo not drawn)"
  recorded result: -0.0276

Ask: # returns recorded hERG current change (%, negative = inhibition) at 10uM (system: human ether-à-go-go-related gene (hERG) potassium channel (human)) for CCN1CCN(CC(=O)N2N=C(c3cccs3)CC2c2ccc(OC)cc2)C(=O)C1=O (stereo not drawn);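 also: peak tail current of the secondary pulse compared with the same well before compound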
Result: -8.83

Ask: What measured hERG current change (%, negative = inhibition) at 10uM is associated with O=C(CCN1CCN(c2ccccc2)CC1)Nc1cccc(Br)c1 on human ether-à-go-go-related gene (hERG) potassium channel (human)?
Result: -61.4

Ask: Query hERG current change (%, negative = inhibition) at 10uM on human ether-à-go-go-related gene (hERG) potassium channel (human) for c1cnc(Sc2ccc3nnnn3n2)nc1
Result: -56.4

Ask: # returns recorded hERG current change (%, negative = inhibition) at 10uM (system: human ether-à-go-go-related gene (hERG) potassium channel (human)) for Cc1cc(C)n(CCC(=O)Nc2ccc3c(c2)OCCO3)n1;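 also: peak tail current of the secondary pulse compared with the same well before compound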
Result: 17.1

Ask: Test system human ether-à-go-go-related gene (hERG) potassium channel (human); read-out hERG current change (%, negative = inhibition) at 10uM; what value for Cc1ccc(C2CC(c3cccs3)=NN2C(=O)CSc2nc(=O)n3ccc(C)cc3n2)cc1 (stereo not drawn) ?;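 also: peak tail current of the secondary pulse compared with the same well before compound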
Result: -46.3

Ask: Hi! What's the reported hERG current change (%, negative = inhibition) at 10uM for Cn1nc(C(=O)NCC2CCCO2)c2ccccc2c1=O (stereo not drawn) on human ether-à-go-go-related gene (hERG) potassium channel (human)?
Result: -3

Ask: Tell me reported hERG current change (%, negative = inhibition) at 10uM for O=C(CSc1nnc(-c2cnccn2)n1Cc1ccco1)c1ccc2ccccc2c1 , tested with human ether-à-go-go-related gene (hERG) potassium channel (human).
Result: -15.4

Ask: Give human ether-à-go-go-related gene (hERG) potassium channel (human) hERG current change (%, negative = inhibition) at 10uM for CCOc1ccnc(OCC)c1Br
Result: 28.3

---

system: human ether-à-go-go-related gene (hERG) potassium channel (human);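 also: peak tail current of the secondary pulse compared with the same well before compound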
experiment notes: primary screen, population patch clamp on CHO cells stably expressing hERG; higher = less effect of the substance
The campaign covered roughly 310,000 compounds. About 14,000 (4.5%) showed an effect of 50% or more. The effect is printed as a negative number. The list comes from a sample in which strong results are over-represented; it also holds close analogues and randomly drawn compounds.
test readout: hERG current change (%, negative = inhibition) at 10uM (%)
Just the number in %, nothing appended.

- compound: "COc1ccc(NC(=O)OCC(C)C)cc1OC"
  system: "human ether-à-go-go-related gene (hERG) potassium channel (human)"
  recorded result: 15.9
- compound: "Cc1cc(=O)oc(C)c1C(=O)NCc1ccc(F)cc1"
  system: "human ether-à-go-go-related gene (hERG) potassium channel (human)"
  recorded result: -15.9
- compound: "O=C(CCC(=O)Nc1ccccc1)NNC(=O)c1ccco1"
  system: "human ether-à-go-go-related gene (hERG) potassium channel (human)"
  recorded result: 8.99
- compound: "Cc1cccc(C(=O)Oc2csc(=S)n2C(=O)c2cccc(C)c2)c1"
  system: "human ether-à-go-go-related gene (hERG) potassium channel (human)"
  recorded result: 6.76

Ask: So what's the measured hERG current change (%, negative = inhibition) at 10uM for this one? Cc1cc(CNC(=O)c2cccc([N+](=O)[O-])c2)c2ccccc2n1
Result: 6.72

Ask: For CCCCC(=O)Nc1ccc2c(c1)nc(CCNC(=O)c1ccco1)n2C , what is its reported hERG current change (%, negative = inhibition) at 10uM?
Result: -11.1

Ask: What measured hERG current change (%, negative = inhibition) at 10uM goes with S=C(NCCN1CCCCC1)Nc1ccccc1 ?
Result: 0.941

Ask: Dear colleague, I am looking for the recorded hERG current change (%, negative = inhibition) at 10uM of the following compound: CCCCNC(=S)Nc1ccc(Cl)cc1
Result: 3.01

Ask: What measured hERG current change (%, negative = inhibition) at 10uM goes with O=C(O)c1cc(OCc2ccccc2)cc(OCc2ccccc2)c1 ?
Result: 10.8
